- SYSTEM_UNDER_TEST: T1, Human OSM (human, UniProt P13725 26-221)
- T1 construct: Recombinant human OSM; also called hOSM; human Oncostatin M
- T1 sequence: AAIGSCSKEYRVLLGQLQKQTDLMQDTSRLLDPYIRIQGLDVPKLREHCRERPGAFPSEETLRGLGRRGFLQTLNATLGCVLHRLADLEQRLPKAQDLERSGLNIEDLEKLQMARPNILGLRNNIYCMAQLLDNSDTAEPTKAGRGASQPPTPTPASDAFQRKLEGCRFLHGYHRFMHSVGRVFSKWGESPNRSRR
- MEASUREMENT_NOTES: SPR (ProteOn XPR36 or Biacore T100), captured supernatant, OSM as analyte
Catalogue of pKd readings, one per entry.
Bear in mind: pKd is minus log10 of a mol/L concentration; give just that figure.

Here are 4 binders together with their reported answers.
BINDER	OBSERVATION_TYPE	ENDPOINT_VALUE
Pos 95 Gln (antibody, V domains shown, also called CDRH3 D95>Q) VH: EVQLVESGGGLVQPGGSLRLSCAASGFTFSSYAMSWVRQAPGKGLEWVATISDGGSFTYYLDNVRGRFTISRDNAKNSLYLQMNSLRAEDTAVYYCARQVGHTTFWYFDVWGRGTLVTVSS VL: DIVMTQSPDSLAVSLGERATINCRASKSVSAAGYNFMHWYQQKPGQPPKVLIYYASNLESGVPDRFSGSGSGTDFTLTISSLQAEDVAVYYCLHSREFPFTFGGGTKVEIKR	pKd	9.24
Pos 99 Cys (antibody, V domains shown, also called CDRH3 T99>C) VH: EVQLVESGGGLVQPGGSLRLSCAASGFTFSSYAMSWVRQAPGKGLEWVATISDGGSFTYYLDNVRGRFTISRDNAKNSLYLQMNSLRAEDTAVYYCARDVGHCTFWYFDVWGRGTLVTVSS VL: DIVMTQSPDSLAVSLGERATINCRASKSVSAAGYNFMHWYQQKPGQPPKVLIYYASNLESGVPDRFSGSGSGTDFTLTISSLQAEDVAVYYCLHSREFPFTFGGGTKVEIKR	pKd	9.15
Pos 95 Gly (antibody, V domains shown, also called CDRH3 D95>G) VH: EVQLVESGGGLVQPGGSLRLSCAASGFTFSSYAMSWVRQAPGKGLEWVATISDGGSFTYYLDNVRGRFTISRDNAKNSLYLQMNSLRAEDTAVYYCARGVGHTTFWYFDVWGRGTLVTVSS VL: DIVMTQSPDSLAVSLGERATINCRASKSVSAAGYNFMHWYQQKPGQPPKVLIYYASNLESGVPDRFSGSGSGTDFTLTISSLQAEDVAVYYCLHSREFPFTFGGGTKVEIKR	pKd	9.29
Pos 95 Glu (antibody, V domains shown, also called CDRH3 D95>E) VH: EVQLVESGGGLVQPGGSLRLSCAASGFTFSSYAMSWVRQAPGKGLEWVATISDGGSFTYYLDNVRGRFTISRDNAKNSLYLQMNSLRAEDTAVYYCAREVGHTTFWYFDVWGRGTLVTVSS VL: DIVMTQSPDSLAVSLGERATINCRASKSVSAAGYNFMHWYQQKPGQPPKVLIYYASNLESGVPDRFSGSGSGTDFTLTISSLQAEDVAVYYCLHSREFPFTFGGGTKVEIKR	pKd	9.11

Turning to the following binder.
Look at this binder and give its reported pKd. Pos 98 Ala (antibody, V domains shown, also called CDRH3 H98>A) VH: EVQLVESGGGLVQPGGSLRLSCAASGFTFSSYAMSWVRQAPGKGLEWVATISDGGSFTYYLDNVRGRFTISRDNAKNSLYLQMNSLRAEDTAVYYCARDVGATTFWYFDVWGRGTLVTVSS VL: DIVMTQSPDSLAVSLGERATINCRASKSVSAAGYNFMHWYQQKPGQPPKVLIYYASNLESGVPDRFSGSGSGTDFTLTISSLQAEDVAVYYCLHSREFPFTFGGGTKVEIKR
9.18
